molecular target: Neuronal acetylcholine receptor alpha7 (Rattus norvegicus); test: Inhibition constant against [3H]methyllycaconitine binding to alpha7 nicotinic acetylcholine receptor of rat brain membranes
Assay Endpoint: Ki (µM)
Please respond with the number in µM and leave the unit unwritten.

### Prompt Return Ki (reported value) for this compound: CN1C2CCC1[C@H](Cc1ccccc1)CC2 (stereo not given in full)
### Response 14

### Prompt Return Ki (reported value) for this compound: CN1C2CC=C(Cc3ccccc3)C1CC2 (stereo not given)
### Response 15.2

----------
target: Synaptic vesicular amine transporter (Rattus norvegicus, UniProt Q01827); experiment: Inhibition constant against [3H]methyllycaconitine binding to vesicular monoamine transporter-2 of rat brain membranes
Sequence (Q01827 whole entry): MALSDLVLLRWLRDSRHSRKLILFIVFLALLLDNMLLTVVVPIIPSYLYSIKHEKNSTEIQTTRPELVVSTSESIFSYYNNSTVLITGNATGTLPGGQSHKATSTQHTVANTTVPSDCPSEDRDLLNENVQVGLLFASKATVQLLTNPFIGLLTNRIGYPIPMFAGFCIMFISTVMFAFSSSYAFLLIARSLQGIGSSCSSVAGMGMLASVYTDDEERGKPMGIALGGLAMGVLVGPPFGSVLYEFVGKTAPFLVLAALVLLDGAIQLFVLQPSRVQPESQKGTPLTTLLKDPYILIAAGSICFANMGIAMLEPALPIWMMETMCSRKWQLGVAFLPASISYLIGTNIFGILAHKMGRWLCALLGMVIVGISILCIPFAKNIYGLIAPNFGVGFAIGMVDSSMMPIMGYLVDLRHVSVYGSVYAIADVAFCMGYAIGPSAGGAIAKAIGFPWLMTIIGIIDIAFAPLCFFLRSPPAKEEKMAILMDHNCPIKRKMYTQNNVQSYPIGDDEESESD
Assay Endpoint: Ki

### Prompt Return Ki (reported value) for this molecule: CN1C2CCC1[C@@H](Cc1ccccc1)C(O)[C@H]2Cc1ccccc1 (stereo in doubt; 7b)
### Response > 100 µM

Source listed as ChEMBL document CHEMBL1142843.
